# MEASURED TARGET: Recombinant human CD16aV (V polymorphism at position 158 of CD16) (human, UniProt P08637 17-208)
# Sequence (P08637 17-208 F176V): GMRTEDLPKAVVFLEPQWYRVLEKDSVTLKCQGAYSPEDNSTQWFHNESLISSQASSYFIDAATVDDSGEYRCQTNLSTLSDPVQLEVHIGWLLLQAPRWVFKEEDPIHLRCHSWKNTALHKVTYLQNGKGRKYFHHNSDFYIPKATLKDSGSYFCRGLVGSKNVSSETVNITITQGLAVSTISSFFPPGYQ
# RUN DESCRIPTION: SPR; produced in HEK
QUANTITY MEASURED: pKd
Friendly reminder that pKd comes from taking -log10 of the concentration in mol/L.

BINDER: A3A-105D (G316D/K326E/A378V) Fc fragment (other) DKTHTCPPCPAPELLGGPSVFLFPPKPKDTLMISRTPEVTCVVVDVSHEDPEVKFNWYVDGVEVHNAKTKPREEQYNSTYRVVSVLTVLHQDWLNDKEYKCKVSNEALPAPIEKTISKAKGQPREPQVYTLPPSRDELTKNQVSLTCLVKGFYPSDIVVEWESNGQPENNYKTTPPVLDSDGSFFLYSKLTVDKSRWQQGNVFSCSVMHEALHNHYTQKSLSLSPGK
READOUT VALUE: 5.92

For the binder shown here, T5A-74K (K290Y/N315D/A330V/N361D/A378V/N434Y) Fc fragment (other) DKTHTCPPCPAPELLGGPSVFLFPPKPKDTLMISRTPEVTCVVVDVSHEDPEVKFNWYVDGVEVHNAKTYPREEQYNSTYRVVSVLTVLHQDWLDGKEYKCKVSNKALPVPIEKTISKAKGQPREPQVYTLPPSRDELTKDQVSLTCLVKGFYPSDIVVEWESNGQPENNYKTTPPVLDSDGSFFLYSKLTVDKSRWQQGNVFSCSVMHEALHYHYTQKSLSLSPGK , give the reported pKd.
5.50

For the binder shown here, J3B-118A (A378V/P396L/N421T) Fc fragment (other) DKTHTCPPCPAPELLGGPSVFLFPPKPKDTLMISRTPEVTCVVVDVSHEDPEVKFNWYVDGVEVHNAKTKPREEQYNSTYRVVSVLTVLHQDWLNGKEYKCKVSNKALPAPIEKTISKAKGQPREPQVYTLPPSRDELTKNQVSLTCLVKGFYPSDIVVEWESNGQPENNYKTTPLVLDSDGSFFLYSKLTVDKSRWQQGTVFSCSVMHEALHNHYTQKSLSLSPGK , give the reported pKd.
5.74
